Entry source: patent US10023592B2

# IC50 values compiled below
# System: Raji, human Burkitts lymphoma cells
# Protocol details: Cell-MTS proliferation assay, Raji
# Type: cell-based
# Reported conditions: Homo sapiens, Raji; Cell-MTS, 168 hr; class symbols A/B/C
# Description: The Cell-MTS assay is a 7-day plate-based colorimetric assay which quantifies the amount of newly generated NADH in the presence or absence of test compound. The NADH level is used for the quantification of cancer cell proliferation. Established cancer cell lines with a variety of driving mutations were obtained from American Type Culture Collection (ATCC) and routinely passaged according to ATCC protocols. […]

Previously resolved entries follow.
Chemical string: Cn1cc(-c2cc(S(C)(=O)=O)ccc2Oc2ccc(F)cc2F)cc(F)c1=O
IC50: > 5000 nM

Chemical string: Cn1cc(-c2ccc3c(=O)n(C)cc(-c4cc(S(C)(=O)=O)ccc4OCC4CC4)c3c2)cn1
IC50: < 500 nM

Task: Query: IC50; subject: `Cc1ccc(NS(C)(=O)=O)cc1-c1cn(C)c(=O)c2ccccc12`
Result: 500 to 5000 nM

Task: Query: IC50; subject: `CCS(=O)(=O)c1cccc(-c2cn(C)c(=O)c3cc(F)ccc23)c1`
Result: 500 to 5000 nM

---

# System: HL-60, human proleukemia cells
# Protocol details: Cell-MTS proliferation assay, HL-60
# Assay type: cell-based
# Reported conditions: Homo sapiens, HL-60; Cell-MTS, 168 hr; class symbols A/B/C
pIC50: −log10 of the molar value.
Attribute measured: pIC50

Previously resolved entries follow.
Chemical string: Cn1cc(-c2cccc(S(N)(=O)=O)c2)c2ccc(F)cc2c1=O
pIC50: 5.30 to 6.30

Chemical string: Cn1cc(-c2cc(NS(C)(=O)=O)ccc2F)c2ccccc2c1=O
pIC50: > 6.30

Chemical string: COc1ccc(-c2cn(C)c(=O)c3ccccc23)cc1S(=O)(=O)NCc1ccccc1
pIC50: 5.30 to 6.30

Next, consider the following compound.
Task: Please tell me: pIC50 of `Cc1cnn(-c2ccc3c(=O)n(C)cc(-c4cc(S(C)(=O)=O)ccc4OCC4CC4)c3c2)c1` , system HL-60, human proleukemia cells?
Result: > 6.30

---

# pIC50 values compiled below
# Test system: Raji, human Burkitts lymphoma cells
# Protocol details: Cell-MTS proliferation assay, Raji
# Type: cell-based
# Reported conditions: Homo sapiens, Raji; Cell-MTS, 168 hr; class symbols A/B/C
pIC50: −log10 of the molar value.

Previously resolved entries follow.
Compound: CCS(=O)(=O)Nc1ccc(Oc2ccc(F)cc2F)c(-c2cn(C)c(=O)c3cncn23)c1 [Example 129]
pIC50: > 6.30
//
Compound: CCS(=O)(=O)Nc1ccc(Oc2ccc(F)cc2F)c(-c2cc(Cl)c(=O)n(C)c2)c1 [Example 134]
pIC50: > 6.30
//
Compound: COc1ccc(-c2cn(C)c(=O)c3ccccc23)cc1S(=O)(=O)NCc1ccccc1 [Example 15]
pIC50: > 6.30
//
Compound: Cc1cc(=O)n(C)cc1-c1cc(NS(C)(=O)=O)ccc1Oc1ccc(F)cc1F [Example 101]
pIC50: > 6.30
//
Compound: CCS(=O)(=O)c1ccc(Oc2ccc(F)cc2F)c(-c2cc(F)c(=O)n(C)c2)c1 [Example 121]
pIC50: 5.30 to 6.30
//
Compound: Cn1cc(-c2ccc3c(c2)NC(=O)C3)c2ccccc2c1=O [Example 20]
pIC50: > 6.30
//
Compound: Cn1cc(-c2cccc(S(=O)(=O)NCCO)c2)c2ccccc2c1=O [Example 22]
pIC50: 5.30 to 6.30

Next, consider the following compound.
Task: Please tell me: pIC50 of CCS(=O)(=O)Nc1ccc(Oc2ccc(F)cc2F)c(-c2cn(C)c(=O)c3ccccc23)c1 [Example 93] , system Raji, human Burkitts lymphoma cells?
Result: > 6.30
